B1: HDV Ribozyme (parent)
chain: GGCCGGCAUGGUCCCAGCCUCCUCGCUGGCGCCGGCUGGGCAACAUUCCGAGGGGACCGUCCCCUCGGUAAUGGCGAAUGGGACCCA

Variants of: B1
assay name: self-cleavage, relative activity (ratio to wild type); higher = more cleavage; co-transcriptional
measured quantity: self-cleavage
Quick one: just the number, no unit, thanks!

- C14U G38C: 0.158
- G6U A70C: 0.135

Reported self-cleavage, variant A8C G67A : ____ 0.898

# iterate: A16U G17C 0.68
